Values compiled from patent US20180057604A1.

target: T1, murine BACE1 ECD; assay: Octet, pH 7.5;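 further: antibodies captured on anti-human capture biosensor tips, dissociation followed in PBS with BSA buffer, kinetics fitted with a one-to-one binding model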
T1 construct: analyte of the Octet assay (200 nM) and enzyme of the first short substrate assay
T1 sequence (single chain, as listed by the source limits assumed): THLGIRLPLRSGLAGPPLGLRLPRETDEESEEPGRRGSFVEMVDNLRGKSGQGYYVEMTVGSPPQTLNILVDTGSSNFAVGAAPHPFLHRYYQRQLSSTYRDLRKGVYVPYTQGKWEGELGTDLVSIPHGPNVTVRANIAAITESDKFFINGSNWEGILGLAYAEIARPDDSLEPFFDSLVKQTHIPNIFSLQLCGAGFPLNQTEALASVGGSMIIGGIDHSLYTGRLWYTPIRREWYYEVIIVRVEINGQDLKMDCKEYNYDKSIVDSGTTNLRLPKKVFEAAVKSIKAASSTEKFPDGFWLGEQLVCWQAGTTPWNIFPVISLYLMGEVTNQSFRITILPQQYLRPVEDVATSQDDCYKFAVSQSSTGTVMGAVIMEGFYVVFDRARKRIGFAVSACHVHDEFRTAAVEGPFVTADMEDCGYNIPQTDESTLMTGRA
pKd: −log10 of the molar value.

[
  {
    "binder": "5536 (antibody, V domains shown, anti-BACE1 IgG) VH: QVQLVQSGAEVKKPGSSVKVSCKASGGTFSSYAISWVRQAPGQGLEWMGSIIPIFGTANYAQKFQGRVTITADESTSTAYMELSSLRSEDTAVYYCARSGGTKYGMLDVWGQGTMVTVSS VL: EIVMTQSPATLSVSPGERATLSCRASQSVGSNLAWYQQKPGQAPRLLIYGASTRATGIPARFSGSGSGTEFTLTISSLQSEDFAVYYCQQSYLWPPRTFGGGTKVEIK",
    "pKd": 7.66
  },
  {
    "binder": "5747 (antibody, V domains shown, anti-BACE1 IgG) VH: QLQLQESGPGLVKPSETLSLTCTVSGGSISSSSYYWGWIRQPPGKGLEWIGNIYYSGSTYYNPSLKSRVTISVDTSKNQFSLKLSSVTAADTAVYYCARLGHGYSYFDLWGRGTLVTVSS VL: EIVLTQSPATLSLSPGERATLSCRASQSVSSYLAWYQQKPGQAPRLLIYDASNRATGIPARFSGSGSGTDFTLTISSLEPEDFAVYYCQQVYLWPPRTFGGGTKVEIK",
    "pKd": 8.66
  },
  {
    "binder": "5887 (antibody, V domains shown, anti-BACE1 IgG) VH: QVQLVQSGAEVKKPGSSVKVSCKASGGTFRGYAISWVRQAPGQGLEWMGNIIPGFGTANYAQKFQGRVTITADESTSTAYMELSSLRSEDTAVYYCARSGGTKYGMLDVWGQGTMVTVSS VL: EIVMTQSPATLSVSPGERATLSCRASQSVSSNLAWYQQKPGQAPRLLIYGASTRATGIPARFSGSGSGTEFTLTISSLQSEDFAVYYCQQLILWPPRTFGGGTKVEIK",
    "pKd": 8.85
  },
  {
    "binder": "5884 (antibody, V domains shown, anti-BACE1 IgG) VH: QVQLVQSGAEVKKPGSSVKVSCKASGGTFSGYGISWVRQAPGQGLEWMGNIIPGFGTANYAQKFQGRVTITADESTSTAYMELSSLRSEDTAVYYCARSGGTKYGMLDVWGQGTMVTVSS VL: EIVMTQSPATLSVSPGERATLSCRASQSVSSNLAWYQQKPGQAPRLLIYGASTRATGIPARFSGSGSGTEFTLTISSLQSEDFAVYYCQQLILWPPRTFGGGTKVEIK",
    "pKd": 8.89
  },
  {
    "binder": "5880 (antibody, V domains shown, anti-BACE1 IgG) VH: EVQLLESGGGLVQPGGSLRLSCAASGFTFGSYAMTWVRQAPGKGLEWVSAISGSGISTPYADSVKGRFTISRDNSKNTLYLQMNSLRAEDTAVYYCAKGAGHGSYVKGWFDPWGQGTLVTVSS VL: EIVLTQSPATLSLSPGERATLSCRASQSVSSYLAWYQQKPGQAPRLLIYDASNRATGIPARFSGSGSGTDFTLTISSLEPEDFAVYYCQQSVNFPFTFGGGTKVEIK",
    "pKd": 8.92
  },
  {
    "binder": "5875 (antibody, V domains shown, anti-BACE1 IgG) VH: EVQLLESGGGLVQPGGSLRLSCAASGFTFSTYAMGWVRQAPGKGLEWVSATSGSGGSTYYADSVKGRFTISRDNSKNTLYLQMNSLRAEDTAVYYCAKGGSQWLYAPGSWFDPWGQGTLVTVSS VL: EIVLTQSPATLSLSPGERATLSCRASQSVSSYLAWYQQKPGQAPRLLIYDASNRATGIPARFSGSGSGTDFTLTISSLEPEDFAVYYCVQRSNFPWTFGGGTKVEIK",
    "pKd": 7.66
  },
  {
    "binder": "5260 (antibody, V domains shown, anti-BACE1 IgG) VH: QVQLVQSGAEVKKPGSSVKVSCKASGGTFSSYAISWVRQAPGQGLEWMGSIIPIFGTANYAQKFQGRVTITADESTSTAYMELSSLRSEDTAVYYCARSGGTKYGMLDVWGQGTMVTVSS VL: EIVMTQSPATLSVSPGERATLSCRASQSVGSNLAWYQQKPGQAPRLLIYGASTRATGIPARFSGSGSGTEFTLTISSLQSEDFAVYYCQQAVVWPPRTFGGGTKVEIK",
    "pKd": 7.03
  },
  {
    "binder": "5881 (antibody, V domains shown, anti-BACE1 IgG) VH: EVQLLESGGGLVQPGGSLRLSCAASGFTFSKYAMSWVRQAPGKGLEWVSAISGSGISTPYADSVKGRFTISRDNSKNTLYLQMNSLRAEDTAVYYCAKGAGHGSYVKGWFDPWGQGTLVTVSS VL: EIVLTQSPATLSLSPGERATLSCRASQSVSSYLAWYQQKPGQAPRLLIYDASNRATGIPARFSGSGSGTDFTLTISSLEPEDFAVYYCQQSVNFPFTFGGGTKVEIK",
    "pKd": 8.62
  },
  {
    "binder": "5572 (antibody, V domains shown, anti-BACE1 IgG) VH: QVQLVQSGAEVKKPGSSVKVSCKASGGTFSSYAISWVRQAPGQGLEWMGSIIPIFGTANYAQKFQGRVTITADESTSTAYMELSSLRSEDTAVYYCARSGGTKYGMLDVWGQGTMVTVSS VL: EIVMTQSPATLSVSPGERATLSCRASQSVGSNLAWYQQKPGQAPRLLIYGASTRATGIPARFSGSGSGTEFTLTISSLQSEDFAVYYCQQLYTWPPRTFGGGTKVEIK",
    "pKd": 8.60
  },
  {
    "binder": "5878 (antibody, V domains shown, anti-BACE1 IgG) VH: EVQLLESGGGLVQPGGSLRLSCAASGFTFSSYAMSWVRQAPGKGLEWVSAISGSGISTPYADSVKGRFTISRDNSKNTLYLQMNSLRAEDTAVYYCAKGAGHGSYVKGWFDPWGQGTLVTVSS VL: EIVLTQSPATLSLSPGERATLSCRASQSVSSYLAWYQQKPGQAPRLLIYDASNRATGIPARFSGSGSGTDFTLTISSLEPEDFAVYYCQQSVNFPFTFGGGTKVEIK",
    "pKd": 8.57
  }
]
